Assay: in vitro
Details: human, HEK293T cells
Description: Cytotoxicity against HEK293T cells assessed as cell viability at 16.7 uM by CellTiter-Glo assay relative to control
Non-standard residues stand in square brackets, D forms with d. Residues, ends and D or L forms follow the SMILES beside them. *: point of attachment. X1 = O=C(OCCCS*)Oc1ccc2nc(C3=N[C@@H](C(=O)O)CS3)sc2c1; Mpa = O=C(O)CCS
Known viability at 16.7 µM of a selection of molecules
Respond with a number, then the unit of measure.

Field: example entries. Status: answers known.
- molecule: "CC(C)C[C@H](NC(=O)[C@H](CCCCN)NC(=O)[C@H](Cc1c[nH]c2ccccc12)NC(=O)[C@H](CCCNC(=N)N)NC(=O)[C@H](CCCCN)NC(=O)[C@H](CC(C)C)NC(=O)[C@@H](NC(=O)[C@H](CCCNC(=N)N)NC(=O)CCSSCCCOC(=O)Oc1ccc2nc(C3=N[C@@H](C(=O)O)CS3)sc2c1)C(C)C)C(=O)N[C@@H](Cc1ccccc1)C(=O)N[C@@H](CC(N)=O)C(N)=O ([Mpa](X1)RVLKRWKLFN-NH2)"
  readoutType: "viability at 16.7 µM"
  experimentalValue: "92.5%"
- molecule: "CC(C)C[C@H](NC(=O)[C@H](CO)NC(=O)CCSSCCCOC(=O)Oc1ccc2nc(C3=N[C@@H](C(=O)O)CS3)sc2c1)C(=O)N[C@@H](CCCCN)C(=O)N[C@H](C(=O)N[C@@H](CCCNC(=N)N)C(=O)N[C@H](C(=O)N[C@@H](CC(C)C)C(=O)N[C@@H](CCCCN)C(=O)N[C@@H](CCCNC(=N)N)C(=O)N[C@@H](Cc1c[nH]c2ccccc12)C(N)=O)C(C)C)[C@@H](C)O ([Mpa](X1)SLKTRVLKRW-NH2)"
  readoutType: "viability at 16.7 µM"
  experimentalValue: "84.3%"

Proceed to the following item.
Inquiry: Look at this molecule and give its reported viability at 16.7 µM. CC(C)C[C@H](NC(=O)[C@H](CCCCN)NC(=O)[C@H](Cc1c[nH]c2ccccc12)NC(=O)[C@H](CCCNC(=N)N)NC(=O)[C@H](CCCCN)NC(=O)[C@H](CC(C)C)NC(=O)[C@@H](NC(=O)[C@H](CCCNC(=N)N)NC(=O)[C@@H](NC(=O)[C@H](CCCCN)NC(=O)CCSSCCCOC(=O)Oc1ccc2nc(C3=N[C@@H](C(=O)O)CS3)sc2c1)[C@@H](C)O)C(C)C)C(N)=O ([Mpa](X1)KTRVLKRWKL-NH2)
Reply text: 80.5%
